Task for the reader: assign each of the following compounds its reported growth.
System: SF-268 CNS
ASSAY_REMARKS: NCI-60 one-dose screen, 48 h (100 = growth as untreated, 0 = no growth, -100 = all killed)
CONDITION: 10 µM
About 83,000 compounds went through this panel and 20% of them were active in at least one assay; those are over-represented in the sample as a whole.
Respond with the bare value in %.

For the compound C#CCNCCN1C(=O)c2ccc3c4c(ccc(c24)C1=O)C(=O)N(CCNCC#C)C3=O , what growth is on record?
47.9

Need growth, item CCNC1(NC#N)CCCCC1
112

What value of growth has been reported for the following compound? Clc1ccc(-c2nc(-c3cccs3)cn3ccnc23)cc1
82.8

Item O=C(Nc1cccc(F)c1)Nc1cccc(Cl)c1 has what recorded growth?
80.4

Requested read-out: growth. Entry: Nc1nc2c(ncn2C2OC3COP(=O)(O)OC4C(COP(=O)(O)OC2C3O)OC(n2cnc3c(N)ncnc32)C4O)c(=O)[nH]1 (configuration not stated)
102

I am curious: what growth value has been reported for COc1cc(-c2nc3cc(Cl)c(Cl)cc3[nH]2)ccc1OCC(=O)NN ?
77.6

Given the entry O=C(O)CCCN1C(=O)NC2(C1=O)c1ccccc1-c1ccccc12 , report its measured growth.
95.3

Please look up its growth: COc1cc(-c2c(C#N)c(N)n3c(nc4ccccc43)c2C#N)cc(Br)c1OC
64

Can you share its growth? I mean this compound: COc1ccc(-c2cc(/C=C3\C(=O)Nc4cc(Cl)ccc43)[nH]n2)cc1OC
74.4

I have this compound here, C[C@@H]1N=C(c2ccc(Br)cc2)Nc2nc3ccccn3c2C1=O , and I need its recorded growth.
83.4

# lookup: growth of O=S(=O)(NCCO)c1ccc(OCCOc2ccc(S(=O)(=O)NCCO)cc2)cc1
102

So what's the measured growth for this one? C=CCn1ccc(=O)nc1SC
108

Returns the measured growth for the input compound. Input: COC(=O)[C@]12CC[C@@H](C)[C@H](C)[C@@H]1C1=CC[C@@H]3[C@@]4(C)CC(=O)[C@H](O)[C@@]5(C)COC(=C45)C[C@@]3(C)[C@]1(C)CC2
-67.2

Give its growth value. Item: CC(=O)Nc1ccc2c(c1)C(N1CC3CCC(CC3)C1)c1ccccc1-2 (configuration not stated)
92.7

Please look up its growth: NC1CCC(Nc2nc(NCc3ccc(-c4cccs4)nc3)c3ncn(C4CCCC4)c3n2)CC1 (configuration not stated)
-5.75

Value lookup for growth; key = O=C(O)c1cc(C(F)(F)F)cc(C(F)(F)F)c1
106

Item under review: O=C1/C(=C/c2ccc(O)cc2)Oc2ccc(Cl)cc21 . Reported growth?
93

I'd like to know its growth. The compound in question is CNC(=O)c1cc(Oc2ccc(NC(=O)Nc3ccc(Cl)c(OC4CCCCC4)c3)c(F)c2)ccn1
61

Look up growth for this compound: Nc1nsc(C(=O)c2ccc(O)cc2)n1
101

Look up growth: COc1cc(-c2nc3ccccc3[nH]2)ccc1OCc1nnc(-c2ccc(Br)cc2)o1
96.8

Any idea what growth was measured for N#CCC1CCCC1 ?
114

What growth value was documented for this compound, NS(=O)(=O)c1ccc(N2N=C(c3ccc(-c4ccccc4)cc3)CC2c2ccc(Cl)cc2)cc1 (configuration not stated) ?
83.5
